target: T1, CD137-hisFc fusion protein (Sino Biological Cat 10041-H03H) (human, UniProt Q07011 24-186); experiment: BLI Octet, Fab
T1 construct: Bought; also called recombinant human CD137 (fused with human Fc and His tag); not shown: His tag and human Fc
OBSERVED PROPERTY: koff (s⁻¹)
Kindly answer with a numeric value in s⁻¹, unit omitted.

What measured koff goes with Fab 7135 (Fab, V domains shown, Fab from E. coli; also called VH57/VL57) VH: EVQLVESGGGLVQPGGSLRLSCAASGFSLSTGGVGVGWIRQAPGKGLEWVSSISGSGGSTYYADSVKGRFTISRDNSKNTLYLQLNSLRAEDTAVYYCAREGSDTVLGDWFAYWGQGTLVTVSS VL: DIQLTQSPSSLSASVGDRVTITCRASQGVSSYLAWYQQKPGKAPKLLIYDASNLETGVPSRFSGSGSGTDFTLTISSLQPEDFATYYCQQYYTTPLTFGQGTKVEIKR ? 0.00322

What measured koff goes with Fab 7109 (Fab, V domains shown, Fab from E. coli; also called VH52/VL52) VH: EVQLVESGGGLVQPGGSLRLSCAASGFSLSTSGVGVSWIRQAPGKGLEWVSYISGSGDTTYYADSVKGRFTISRDNSKNTLYLQLNSLRAEDTAVYYCAREGSDAVLGDWFAYWGQGTLVTVSS VL: DIQLTQSPSSLSASVGDRVTITCRASQGISSYLAWYQQKPGKAPKLLIYDASNLETGVPSRFSGSGSGTDFTLTISSLQPEDFATYYCQQYYSTPLTFGQGTKVEIKR ? 0.00555
